test: Clearance in dog at 1.25 mg/kg, iv and 5 mg/kg, po; type: ADME, organism-based, Canis lupus familiaris; conditions: in vivo
property_measured: clearance (mL/min/kg)

molecule | reported_result
Cn1c(Nc2ccc(C(F)(F)F)cc2)nc2cc(Oc3ccnc(-c4ncc(C(F)(F)F)[nH]4)c3)ccc21 [RAF-265] | 0.8

====

assay: Clearance in rat at 5 mg/kg, iv and 20 mg/kg, po; type: ADME, organism-based; conditions: in vivo
property_measured: clearance (mL/min/kg)

cpd_smiles | reported_result
Cn1c(Nc2ccc(C(F)(F)F)cc2)nc2cc(Oc3ccnc(-c4ncc(C(F)(F)F)[nH]4)c3)ccc21 | 0.9
